Target: human recombinant histamine H2 receptor (Homo sapiens)
Construct: expressed in transfected cells; host or cells: CHO-K1 cells
Sequence (P25021 whole entry): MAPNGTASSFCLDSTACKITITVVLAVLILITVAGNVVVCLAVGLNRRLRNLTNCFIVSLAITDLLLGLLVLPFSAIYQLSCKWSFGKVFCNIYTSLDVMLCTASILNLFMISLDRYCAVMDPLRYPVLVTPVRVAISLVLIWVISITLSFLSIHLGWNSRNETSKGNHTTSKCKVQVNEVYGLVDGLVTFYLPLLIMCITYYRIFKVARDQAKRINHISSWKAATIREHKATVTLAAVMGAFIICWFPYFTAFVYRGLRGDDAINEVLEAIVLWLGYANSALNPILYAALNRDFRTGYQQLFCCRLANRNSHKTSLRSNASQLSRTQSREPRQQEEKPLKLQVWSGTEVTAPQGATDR
Experiment: Histamine H2 radioligand binding ([125I]Aminopotentidine)
Settings: 1 μM compound; 0.1 nM [125I]Aminopotentidine; read-out: Histamine Binding H2, percent inhibition of specific binding
Procedure: Non-specific binding was estimated in the presence of 3 μM Tiotidine. […] Biochemical assay results are presented as the percent inhibition of specific binding in Table 5. Non-specific binding was estimated in the presence of 3 μM Tiotidine. […] Compounds were screened at 1 μM, using 1% DMSO as vehicle. Biochemical assay results are presented as the percent inhibition of specific binding in Table 6.
Grouping by measured inhibition at 1 µM is done with the following cut points: low bracket (below 10%), middle bracket (10% to below 50%), high bracket (50% or more)

Example results:
compound	tgt	assignedCategory
Cc1ccc2c(c1)c1c(n2CCc2ccc(Cl)cc2)CCN(C)C1	human recombinant histamine H2 receptor (Homo sapiens)	high bracket
CN1CCc2c(c3cc(Cl)ccc3n2CC(=O)N2CCOCC2)C1	human recombinant histamine H2 receptor (Homo sapiens)	low bracket
CN1CCc2c(c3cc(Cl)ccc3n2CCc2n[nH]c(=S)n2C)C1(C)C	human recombinant histamine H2 receptor (Homo sapiens)	middle bracket
CCN1CCc2c(c3cc(C)ccc3n2CCc2ccc(C)nc2)C1	human recombinant histamine H2 receptor (Homo sapiens)	middle bracket
CN1CCc2c(c3cc(I)ccc3n2CCc2ccccc2F)C1	human recombinant histamine H2 receptor (Homo sapiens)	high bracket
Cc1ccc2c(c1)c1c(n2CCC2CCCCC2)CCN(C)C1	human recombinant histamine H2 receptor (Homo sapiens)	high bracket

IN: Assign a category based on measured inhibition at 1 µM for CC1CCN(C(=O)Cn2c3c(c4cc(Cl)ccc42)CN(C)CC3)CC1 and give only the class name.
OUT: middle bracket

IN: Assign a category based on measured inhibition at 1 µM for Cc1ccc2c(c1)c1c(n2CCc2ccc(C)nc2)C(Br)C(=O)N(C)C1 (centres unmarked) and give only the class name.
OUT: low bracket

IN: Assign a category based on measured inhibition at 1 µM for COc1ccc(CCn2c3c(c4cc(C)ccc42)CN(C)CC3)cc1 and give only the class name.
OUT: high bracket

* * *

tested on: AMPA receptors; assay: AMPA-receptor activity: kainic acid-induced currents in Purkinje cells (patch-clamp); assay type: cell-based, rat; details: compound 10^−7 M, mean±SEM, control=100%
Listed next: entries and their corresponding kainic acid-induced currents in Purkinje cells, % of Control values.
Your answer should be a plain number; it is taken to be in %.

CN1CCc2c(c3ccccc3n2CCc2noc(-c3ccccc3)n2)C1 115
Cc1ccc2c(c1)c1c(n2CCc2noc(-c3ccccc3)n2)CCN(C)C1 147

Alright, here's another compound for you.
IN: Recall the recorded kainic acid-induced currents in Purkinje cells, % of Control values for Cc1ccc2c(c1)c1c(n2CCc2nc(-c3ccccc3)cs2)CCN(C)C1 with AMPA receptors and state it.
OUT: 70

* * *

molecular target: human recombinant serotonin (5-Hydroxytryptamine) 5-HT2A receptor (Homo sapiens, UniProt P28223); construct: expressed in transfected cells; host or cells: CHO-K1 cells; assay: Serotonin 5-HT2A radioligand binding ([3H]Ketanserin); settings: percent inhibition of specific binding
Sequence (P28223 whole entry): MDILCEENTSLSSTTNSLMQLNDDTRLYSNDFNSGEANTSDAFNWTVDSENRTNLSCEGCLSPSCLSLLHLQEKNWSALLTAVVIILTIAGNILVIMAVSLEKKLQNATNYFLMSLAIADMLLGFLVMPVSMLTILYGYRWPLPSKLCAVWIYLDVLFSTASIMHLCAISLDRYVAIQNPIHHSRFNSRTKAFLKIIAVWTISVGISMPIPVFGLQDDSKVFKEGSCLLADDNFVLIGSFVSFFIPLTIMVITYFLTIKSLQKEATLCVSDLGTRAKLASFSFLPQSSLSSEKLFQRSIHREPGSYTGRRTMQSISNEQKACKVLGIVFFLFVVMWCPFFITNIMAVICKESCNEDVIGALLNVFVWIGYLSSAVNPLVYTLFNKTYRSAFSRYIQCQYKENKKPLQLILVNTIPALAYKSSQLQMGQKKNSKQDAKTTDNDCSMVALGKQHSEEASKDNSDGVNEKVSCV
Listed next: entries and their corresponding Inhibition of ligand binding, Ser. 5-HT2A.
Your answer should be a plain number; it is taken to be in %.

Here's what some known entries look like.
compound	recordedResult
CN1CCc2c(c3cc(Cl)ccc3n2CCc2ccccn2)C1 [Compound 30]	91
Cc1ccc(CCn2c3c(c4cc(Cl)ccc42)CN(C)CC3)cc1 [Compound 43]	99

IN: Look up Inhibition of ligand binding, Ser. 5-HT2A for this compound: Cc1ccc2c(c1)c1c(n2CCc2cccnc2)CCN(C)C1 [Compound 60]
OUT: 84

IN: Look up Inhibition of ligand binding, Ser. 5-HT2A for this compound: CN1CCc2c(c3cc(Cl)ccc3n2CCc2ccc(F)cc2)C1 [Compound 162]
OUT: 98

IN: Look up Inhibition of ligand binding, Ser. 5-HT2A for this compound: CN1CCc2c(c3cc(Cl)cc(F)c3n2CCc2ccc(C(F)(F)F)nc2)C1 [Compound 338]
OUT: 94

IN: Look up Inhibition of ligand binding, Ser. 5-HT2A for this compound: Cc1ccc2c(c1)c1c(n2CCc2ccc(C)nc2)CC(=O)N(C)C1 [Compound 195]
OUT: −4

IN: Look up Inhibition of ligand binding, Ser. 5-HT2A for this compound: CN1CCc2c(c3c(Cl)cccc3n2CCC2CCCCC2)C1 [Compound 187]
OUT: 84

IN: Look up Inhibition of ligand binding, Ser. 5-HT2A for this compound: Cc1ccc(CCn2c3c(c4cc(Cl)ccc42)CN(C)CC3)cn1 [Compound 225]
OUT: 92

IN: Look up Inhibition of ligand binding, Ser. 5-HT2A for this compound: Cc1ncc(CCn2c3c(c4cc(C(C)C)ccc42)CN(C)CC3)cn1 [Compound 370]
OUT: 15

IN: Look up Inhibition of ligand binding, Ser. 5-HT2A for this compound: Cc1ccc2c(c1)c1c(n2CCc2ccccc2)CCNC1 [Compound 228]
OUT: 77

IN: Look up Inhibition of ligand binding, Ser. 5-HT2A for this compound: CCc1ccc(CCn2c3c(c4cc(Cl)ccc42)CN(C)CC3)cn1 [Compound 371]
OUT: 93

IN: Look up Inhibition of ligand binding, Ser. 5-HT2A for this compound: Cc1ccc2c(c1)c1c(n2CC(=O)N2CCc3ccccc3C2)CCN(C)C1 [Compound 398]
OUT: 85

IN: Look up Inhibition of ligand binding, Ser. 5-HT2A for this compound: CC(C)c1ccc(CCn2c3c(c4cc(Cl)ccc42)CN(C)CC3)cn1 [Compound 372]
OUT: 96

IN: Look up Inhibition of ligand binding, Ser. 5-HT2A for this compound: Cc1ccc2c(c1)c1c(n2CCC(=O)N2CCC(N)CC2)CCN(C)C1 [Compound 231]
OUT: 5

IN: Look up Inhibition of ligand binding, Ser. 5-HT2A for this compound: CCCc1ccc(CCn2c3c(c4cc(C)ccc42)CN(C)CC3)cn1 [Compound 452]
OUT: 97

IN: Look up Inhibition of ligand binding, Ser. 5-HT2A for this compound: CN1CCc2c(c3cc(Cl)ccc3n2CCc2ccc(C(F)(F)F)nc2)C1 [Compound 250]
OUT: 101

IN: Look up Inhibition of ligand binding, Ser. 5-HT2A for this compound: Cc1ccc(CCn2c3c(c4cc(C)ccc42)CN(C)CC3)cc1 [Compound 25]
OUT: 93

IN: Look up Inhibition of ligand binding, Ser. 5-HT2A for this compound: CN1CCN(CCn2c3c(c4cc(Cl)ccc42)CN(C)CC3)CC1 [Compound 417]
OUT: 23

* * *

target: human recombinant adrenergic α2B receptor (Homo sapiens, UniProt P18089); construct: expressed in transfected cells; host or cells: CHO-K1 cells; test: Adrenergic α2B radioligand binding ([3H]Rauwolscine); design: concentration or dose not given beside the values; details: percent inhibition of specific binding
Sequence (P18089 whole entry): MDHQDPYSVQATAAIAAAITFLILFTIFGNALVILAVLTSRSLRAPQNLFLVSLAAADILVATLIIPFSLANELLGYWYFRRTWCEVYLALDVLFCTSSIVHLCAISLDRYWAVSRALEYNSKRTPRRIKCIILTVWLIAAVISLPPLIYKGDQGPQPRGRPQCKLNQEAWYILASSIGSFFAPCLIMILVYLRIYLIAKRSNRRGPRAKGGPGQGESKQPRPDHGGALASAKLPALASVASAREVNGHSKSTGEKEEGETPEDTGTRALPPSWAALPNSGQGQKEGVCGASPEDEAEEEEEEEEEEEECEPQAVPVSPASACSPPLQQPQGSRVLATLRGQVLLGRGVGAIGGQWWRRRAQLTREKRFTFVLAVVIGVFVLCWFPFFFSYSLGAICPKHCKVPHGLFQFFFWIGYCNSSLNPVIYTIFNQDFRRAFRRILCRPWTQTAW
Listed next: entries and their corresponding Inhibition of ligand binding, Adren. alpha2B.
Your answer should be a plain number; it is taken to be in %.

Here's what some known entries look like.
compound	tgt	recordedResult
COc1ccc(CCn2c3c(c4cc(Cl)ccc42)CN(C)CC3)cc1 [Compound 336]	human recombinant adrenergic α2B receptor (Homo sapiens, UniProt P18089)	103
Cc1ccc2c(c1)c1c(n2CCCc2ccccn2)CCN(C)C1 [Compound 233]	human recombinant adrenergic α2B receptor (Homo sapiens, UniProt P18089)	96
Cc1ccc(CCn2c3c(c4cc(Cl)ccc42)CN(c2cccc(C(F)(F)F)c2)CC3)cn1 [Compound 403]	human recombinant adrenergic α2B receptor (Homo sapiens, UniProt P18089)	46

IN: Look up Inhibition of ligand binding, Adren. alpha2B for this compound: Cc1ccc2c(c1)c1c(n2CC(=O)N2CCSCC2)CCN(C)C1 [Compound 399]
OUT: 11

IN: Look up Inhibition of ligand binding, Adren. alpha2B for this compound: CCc1ccc2c(c1)c1c(n2CCc2ccc(C(F)(F)F)nc2)CCN(C)C1 [Compound 358]
OUT: 109

IN: Look up Inhibition of ligand binding, Adren. alpha2B for this compound: Cc1ccc2c(c1)c1c(n2CCc2ccc(C)nc2)CCN(C)C1 [Dimebon, dimebon, reference compound]
OUT: 112

IN: Look up Inhibition of ligand binding, Adren. alpha2B for this compound: Cc1ccc2c(c1)c1c(n2CCc2ccc(C(=O)O)nc2)CCNC1 [Compound 262]
OUT: −2

IN: Look up Inhibition of ligand binding, Adren. alpha2B for this compound: CC1CCCCN1C(=O)Cn1c2c(c3cc(Cl)ccc31)CN(C)CC2 (stereo not drawn) [Compound 321]
OUT: 25

IN: Look up Inhibition of ligand binding, Adren. alpha2B for this compound: CCN1CCc2c(c3ccccc3n2CCc2ccccn2)C1 [Compound 6]
OUT: 54

IN: Look up Inhibition of ligand binding, Adren. alpha2B for this compound: Cc1ccc2c(c1)c1c(n2Cc2ccc(C)nc2)CCN(C)C1 [Compound 139]
OUT: 52

IN: Look up Inhibition of ligand binding, Adren. alpha2B for this compound: Cc1ccc2c(c1)c1c(n2CCc2ccccn2)CCN(C)C1 [Compound 21]
OUT: 114

IN: Look up Inhibition of ligand binding, Adren. alpha2B for this compound: CCOC(=O)c1ccc(CCn2c3c(c4cc(C)ccc42)CN(C)CC3)cn1 [Compound 275]
OUT: 92

IN: Look up Inhibition of ligand binding, Adren. alpha2B for this compound: CN1CCc2c(c3cc(Cl)c(F)cc3n2CCc2ccc(C(F)(F)F)nc2)C1 [Compound 343]
OUT: 117

IN: Look up Inhibition of ligand binding, Adren. alpha2B for this compound: Cc1ncc(CCn2c3c(c4cc(Cl)ccc42)CN(C)CC3)cn1 [Compound 361]
OUT: 94

IN: Look up Inhibition of ligand binding, Adren. alpha2B for this compound: Cc1ccc2c(c1)c1c(n2CCC(=O)N2CCC(NC(=O)OC(C)(C)C)CC2)CCN(C)C1 [Compound 393]
OUT: 28

IN: Look up Inhibition of ligand binding, Adren. alpha2B for this compound: CN1CCc2c(c3cc(Cl)ccc3n2CCc2ccccc2)C1 [Compound 36]
OUT: 104

IN: Look up Inhibition of ligand binding, Adren. alpha2B for this compound: CN1CCc2c(c3cc(Cl)ccc3n2CCn2cccc2)C1 [Compound 349]
OUT: 111

IN: Look up Inhibition of ligand binding, Adren. alpha2B for this compound: Cc1ccc(CCn2c3c(c4cc(CO)ccc42)CN(C)CC3)cn1 [Compound 263]
OUT: 105
